tested on: Vero; test: Cytotoxicity against african green monkey Vero cells after 72 hrs by CellTiterGlo assay; conditions: chlorocebus sabaeus, vero, 72 h
metric: CC50

# given-smiles, measurement
measured = [
    ("Cc1c(N2CCCC2)[n+]([O-])c2ccccc2[n+]1[O-]", "> 16 µg/mL"),
    ("[O-][n+]1nc(N[C@@H]2C[C@H]3CC[C@@H]2C3)[n+]([O-])c2cc3c(cc21)CCC3", "> 50 µg/mL"),
    ("[O-][n+]1nc(NC2CCCC2)[n+]([O-])c2ccccc21", "10 µg/mL"),
    ("COc1cc2c(cc1C)[n+]([O-])nc(N[C@@H]1C[C@H]3CC[C@@H]1C3)[n+]2[O-]", "> 50 µg/mL"),
]

====

CC50 overview
test system: Vero; assay: Cytotoxicity against african green monkey Vero cells after 72 hrs by CellTiterGlo assay; details: chlorocebus sabaeus, vero, 72 h

# given-smiles, CC50
measured = [
    ("CCNc1n[n+]([O-])c2cc(F)ccc2[n+]1[O-]", "4.6 µg/mL"),
    ("[O-][n+]1nc(NC2CCCC2)[n+]([O-])c2ccc(F)cc21", "2.3 µg/mL"),
    ("[O-][n+]1nc(N[C@@H]2C[C@H]3CC[C@@H]2C3)[n+]([O-])c2ccc(Br)cc21", "0.8 µg/mL"),
    ("[O-][n+]1nc(N[C@@H]2C[C@H]3CC[C@@H]2C3)[n+]([O-])c2ccccc21", "3.4 µg/mL"),
    ("CCNc1n[n+]([O-])c2cc3c(cc2[n+]1[O-])CCC3", "36 µg/mL"),
]

====

tested on: Vero; experiment: Cytotoxicity against african green monkey Vero cells after 72 hrs by CellTiterGlo assay; details: chlorocebus sabaeus, vero, 72 h
metric: CC50 (µg/mL)

# given-smiles, metric, unit-info, operator-symbol, measurement
rows = [
    ("[O-][n+]1nc(NC2CCC2)[n+]([O-])c2cc3c(cc21)CCC3", "CC50", "µg/mL", "=", 34),
    ("Nc1n[n+]([O-])c2ccccc2[n+]1[O-]", "CC50", "µg/mL", "=", 8),
    ("CCNc1n[n+]([O-])c2cc(C)c(OC)cc2[n+]1[O-]", "CC50", "µg/mL", ">", 100),
    ("[O-][n+]1nc(NC2CCCC2)[n+]([O-])c2ccc(Br)cc21", "CC50", "µg/mL", "=", 18),
    ("C[C@@H](Nc1n[n+]([O-])c2ccccc2[n+]1[O-])C1CCCCC1", "CC50", "µg/mL", "=", 8.9),
    ("COc1ccc2c(c1)[n+]([O-])nc(NC1CCC1)[n+]2[O-]", "CC50", "µg/mL", "=", 9.8),
]

====

assay: Cytotoxicity against african green monkey Vero cells after 72 hrs by CellTiterGlo assay; settings: chlorocebus sabaeus, Vero cells
CC50 at 72 h overview
metric: CC50 at 72 h (µg/mL)

# compound, measurement
measured = [
    ("COCC(C)Nc1n[n+]([O-])c2cc(F)ccc2[n+]1[O-] (configuration not stated)", 6.3),
    ("COCC(C)Nc1n[n+]([O-])c2cc(Cl)ccc2[n+]1[O-] (configuration not stated)", 2.6),
]
